- measurement target: DNA polymerase (UniProt P10443)
- Sequence (P10443 whole entry): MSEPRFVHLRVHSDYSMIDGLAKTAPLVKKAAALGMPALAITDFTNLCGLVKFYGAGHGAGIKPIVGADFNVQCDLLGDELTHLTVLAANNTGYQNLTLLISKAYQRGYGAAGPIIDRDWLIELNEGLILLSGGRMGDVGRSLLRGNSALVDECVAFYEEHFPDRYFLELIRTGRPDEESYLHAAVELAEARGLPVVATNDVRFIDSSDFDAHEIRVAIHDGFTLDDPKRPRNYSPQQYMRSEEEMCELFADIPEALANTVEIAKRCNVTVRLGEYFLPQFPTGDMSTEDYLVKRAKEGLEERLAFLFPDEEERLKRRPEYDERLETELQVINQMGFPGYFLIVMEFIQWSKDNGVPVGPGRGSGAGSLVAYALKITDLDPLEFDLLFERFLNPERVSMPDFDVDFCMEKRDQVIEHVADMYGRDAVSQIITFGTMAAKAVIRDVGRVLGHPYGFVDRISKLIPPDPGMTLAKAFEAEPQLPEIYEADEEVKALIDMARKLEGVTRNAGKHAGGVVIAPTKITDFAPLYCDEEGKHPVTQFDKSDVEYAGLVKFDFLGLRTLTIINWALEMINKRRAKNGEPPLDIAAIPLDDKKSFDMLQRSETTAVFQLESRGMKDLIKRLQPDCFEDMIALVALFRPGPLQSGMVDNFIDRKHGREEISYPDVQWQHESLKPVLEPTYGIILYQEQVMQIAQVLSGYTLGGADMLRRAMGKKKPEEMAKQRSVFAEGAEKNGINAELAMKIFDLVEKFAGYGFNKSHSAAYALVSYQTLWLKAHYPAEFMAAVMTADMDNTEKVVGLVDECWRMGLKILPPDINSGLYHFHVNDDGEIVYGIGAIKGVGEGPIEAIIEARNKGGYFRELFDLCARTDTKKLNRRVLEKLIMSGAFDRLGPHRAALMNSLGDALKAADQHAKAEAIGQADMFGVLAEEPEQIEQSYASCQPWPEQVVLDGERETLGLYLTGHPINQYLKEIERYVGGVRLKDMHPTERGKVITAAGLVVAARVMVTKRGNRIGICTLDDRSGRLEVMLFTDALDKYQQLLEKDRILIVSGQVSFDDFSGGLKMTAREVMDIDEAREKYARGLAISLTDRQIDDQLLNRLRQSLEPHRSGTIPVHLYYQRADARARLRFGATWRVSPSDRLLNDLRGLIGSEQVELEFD
- experiment summary: relative enzymatic activity vs untreated control (fraction); higher = less inhibition
- assay context: 100 µM; incubation time: 2 h at 37 C
measurement name: relative enzymatic activity
Hey, just send me the number, nothing else.

Worked cases, answers included:
| compound | relative enzymatic activity |
| --- | --- |
| CC(C)[C@@H](CC[C@@H](C)[C@H]1CC[C@H]2[C@@H]3[C@H](O)C[C@H]4C[C@@H](NCCCNCCCCNCCCN)CC[C@]4(C)[C@H]3CC[C@]12C)OS(=O)(=O)O | 0.126 |
| CON=C(C(=O)NC1C(=O)N2C(C(=O)[O-])=C(CSc3nc(=O)c([O-])nn3C)CSC12)c1csc(N)n1.O.O.O.[Na+].[Na+] (configuration not stated) | 1.13 |
| NC(=O)[C@@H]1C(=O)C[C@@H]2C[C@@H]3Cc4cccc(O)c4C(=O)[C@@H]3C(=O)[C@]2(O)C1=O | 0.976 |
| O=C1OC(=O)[C@H]2[C@@H]1[C@H]1CC[C@H]2O1 | 1.01 |
| C=CC1=C(C(=O)O)N2C(=O)C(NC(=O)C(=NO)c3csc(N)n3)C2SC1 (configuration not stated) | 1.06 |
| CCC1OC(=O)C(C)C(=O)C(C)C(OC2OC(C)CC(N(C)C)C2O)C(C)(OC)CC(C)C(=O)C(C)C2N(CCCCn3cnc(-c4cccnc4)c3)C(=O)OC12C (configuration not stated) | 1.24 |

Read the next record carefully.
// query relative enzymatic activity value for entry "N[C@@H](C(=O)N[C@@H]1C(=O)N2C(C(=O)O)=C(Cl)CC[C@H]12)c1ccccc1"
1.03

---

- measurement target: DNA helicase (UniProt P0ACB1)
- Sequence (P0ACB1 whole entry): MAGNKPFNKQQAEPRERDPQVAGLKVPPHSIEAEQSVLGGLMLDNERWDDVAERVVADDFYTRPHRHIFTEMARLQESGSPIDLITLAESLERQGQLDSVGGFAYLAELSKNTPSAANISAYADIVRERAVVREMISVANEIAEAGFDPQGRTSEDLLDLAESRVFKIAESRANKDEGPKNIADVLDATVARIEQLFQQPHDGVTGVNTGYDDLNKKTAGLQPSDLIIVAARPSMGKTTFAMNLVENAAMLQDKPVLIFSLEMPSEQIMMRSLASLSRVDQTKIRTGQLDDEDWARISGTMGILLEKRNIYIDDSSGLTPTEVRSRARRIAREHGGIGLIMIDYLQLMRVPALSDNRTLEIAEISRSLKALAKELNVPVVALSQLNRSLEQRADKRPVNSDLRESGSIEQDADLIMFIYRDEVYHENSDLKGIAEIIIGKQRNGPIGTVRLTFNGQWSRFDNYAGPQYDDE
- experiment summary: relative enzymatic activity vs untreated control (fraction); higher = less inhibition
- assay context: 100 µM; incubation time: 2 h at 37 C
Each item that follows carries a reported relative enzymatic activity.
Returns: the value as a bare number; no unit string appended.

Sample records with relative enzymatic activity:
| molecule | relative enzymatic activity |
| --- | --- |
| CCn1cc(C(=O)O)c(=O)c2cc(F)c(N3CCNC(C)C3)c(F)c21.Cl (stereo not drawn) | 0.786 |
| N[C@H]1CCN(c2nc3c(cc2F)c(=O)c(C(=O)O)cn3-c2ccc(F)cc2F)C1 | 0.461 |
| CNC1C(O)C(NC)C2OC3(O)C(=O)CC(C)OC3OC2C1O.Cl.Cl (stereo not drawn) | 0.484 |
| O=C1C=CC(=O)N1 | 0.616 |
| CN[C@H]1CN(c2ccc3c(=O)c(C(=O)O)cn(-c4nccs4)c3n2)C[C@@H]1OC | 0.18 |
| CCC(C)CCCCC(=O)NC(CCN)C(=O)NC(C(=O)NC(CCN)C(=O)NC1CCNC(=O)C(C(C)O)NC(=O)C(CCN)NC(=O)C(CCN)NC(=O)C(CC(C)C)NC(=O)C(Cc2ccccc2)NC(=O)C(CCN)NC1=O)C(C)O.O=S(=O)(O)O (stereo not drawn) | 0.653 |

// returns reported relative enzymatic activity for input CON=C(C(=O)NC1C(=O)N2C(C(=O)O)=C(C[N+]3(C)CCCC3)CSC12)c1csc(N)n1.[Cl-] (stereo not drawn)
0.431

Fill in the blank: the reported relative enzymatic activity of "CN(C)[C@@H]1C(=O)[C@@H](C(N)=O)C(=O)[C@@]2(O)C(=O)[C@H]3C(=O)c4c(O)ccc(Cl)c4[C@@H](O)[C@H]3C[C@@H]12" is ____.
0.508

---

- measurement target: DNA helicase (UniProt P0ACB1)
- experiment summary: relative enzymatic activity vs untreated control (fraction); higher = less inhibition
- assay context: 100 µM; incubation time: 2 h at 37 C
Property: relative enzymatic activity; scope: individual compounds

As a guide, the following entries are already answered.
| compound | relative enzymatic activity |
| --- | --- |
| CC(C)[C@@H](CC[C@@H](C)[C@H]1CC[C@H]2[C@@H]3[C@H](O)C[C@H]4C[C@@H](NCCCNCCCCNCCCN)CC[C@]4(C)[C@H]3CC[C@]12C)OS(=O)(=O)O | 0.0588 |
| CN(C)c1ccc(O)c2c1C[C@H]1C[C@H]3[C@H](N(C)C)C(=O)[C@@H](C(N)=O)C(=O)[C@@]3(O)C(=O)[C@H]1C2=O | 0.47 |
| CO/N=C(\C(=O)N[C@@H]1C(=O)N2C(C(=O)O)=C(C[n+]3ccn4ncccc43)CS[C@H]12)c1nsc(N)n1 | 0.625 |

relative enzymatic activity lookup needed for CC(N)O.Cc1cc(CC(C)CC(C)(C)C)n(O)c(=O)c1 (centres undefined) , thanks.
0.621

---

Each entry below lists one item and its recorded relative enzymatic activity value.
- measurement target: DNA polymerase (UniProt P10443)
- experiment summary: relative enzymatic activity vs untreated control (fraction); higher = less inhibition
- assay context: 100 µM; incubation time: 2 h at 37 C
The reply should be a number, written without any unit.

Which relative enzymatic activity value is on record for "CC[C@@H](C)CCCCC(=O)N[C@@H](CCN)C(=O)N[C@H](C(=O)N[C@@H](CCN)C(=O)N[C@H]1CCNC(=O)[C@H]([C@@H](C)O)NC(=O)[C@H](CCN)NC(=O)[C@H](CCN)NC(=O)[C@H](CC(C)C)NC(=O)[C@@H](Cc2ccccc2)NC(=O)[C@@H](CCN)NC1=O)[C@@H](C)O" ?
0.34

Please give the measured relative enzymatic activity for this molecule: CC1(C)SC2C(N3C(=O)C(c4ccccc4)NC3(C)C)C(=O)N2C1C(=O)[O-].[K+] (stereo not drawn)
1.36

What does the record list as relative enzymatic activity for "CCn1cc(C(=O)O)c(=O)c2cc(F)c(N3CCN(C)CC3)cc21.CS(=O)(=O)O" ?
1.27

// query relative enzymatic activity value for entry COC1(NC(=O)Cc2cccs2)C(=O)N2C(C(=O)[O-])=C(COC(N)=O)CSC21.[Na+] (stereo not drawn)
1.41

# query: relative enzymatic activity of entry CC1COc2c(C3(N)CC3)c(F)cc3c(=O)c(C(=O)O)cn1c23.CS(=O)(=O)O (stereo not drawn)
0.511

Consider the molecule shown here: CCC(C)C1NC(=O)C(CCNCS(=O)(=O)[O-])NC(=O)C(NC(=O)C(CCNCS(=O)(=O)[O-])NC(=O)C(NC(=O)C(CCNCS(=O)(=O)[O-])NC(=O)CCCCC(C)C)C(C)O)CCNC(=O)C(C(C)O)NC(=O)C(CCNCS(=O)(=O)[O-])NC(=O)C(CCNCS(=O)(=O)[O-])NC(=O)C(C(C)CC)NC1=O.[Na+].[Na+].[Na+].[Na+].[Na+] (stereo not drawn) What is its recorded relative enzymatic activity?
1.32

Consider the molecule "N[C@@H]1CC[C@@H](c2ccc(Cl)c(Cl)c2)c2ccccc21" and give its measured relative enzymatic activity.
0.507

Consider the molecule shown here: O=C([O-])CCC(=O)OCC(NC(=O)C(Cl)Cl)C(O)c1ccc([N+](=O)[O-])cc1.[Na+] (stereo not drawn) What is its recorded relative enzymatic activity?
1.27

Returns the measured relative enzymatic activity for the input molecule. Input: "Cc1cc(C2CCCCC2)n(O)c(=O)c1.NCCO"
1.29

I have this molecule here, Cl.NC1CCN(c2c(F)cc3c(=O)c(C(=O)O)cn(C4CC4)c3c2Cl)C1 (stereo not drawn) , and I need its recorded relative enzymatic activity.
1.08

Query: relative enzymatic activity; subject: "CCn1cc(C(=O)O)c(=O)c2cnc(N3CCNCC3)nc21"
1.16

Look up relative enzymatic activity: O=C(NC(CO)C(O)c1ccc([N+](=O)[O-])cc1)C(Cl)Cl (stereo not drawn)
1.34

Reported relative enzymatic activity for CC1c2cccc(O)c2C(=O)C2=C(O)C3(O)C(=O)C(C(N)=O)=C(O)C(N(C)C)C3C(O)C21.Cl (stereo not drawn) : what is it?
1.34

relative enzymatic activity for "CN1CCN(c2cc3c(cc2F)c(=O)c(C(=O)O)cn3-c2ccc(F)cc2)CC1.Cl" ?
1.3

Quick one: relative enzymatic activity of NCC1OC(OC2C(N)CC(N)C(OC3OC(CO)C(O)C(N)C3O)C2O)C(N)CC1O (stereo not drawn) ?
1.33

Fill in: relative enzymatic activity of O=C(Cn1cnnn1)NC1C(=O)N2C(C(=O)O)=C(CSc3nncs3)CSC12 (stereo not drawn) is ___
0.505

Look up relative enzymatic activity for this molecule: CN(C)C1C(O)=C(C(N)=O)C(=O)C2(O)C(O)=C3C(=O)c4c(O)ccc(Cl)c4C(C)(O)C3CC12.Cl (stereo not drawn)
1.35

Entry "CC(=O)On1cc(F)c(=O)[nH]c1=O" has what relative enzymatic activity?
1.03

---

- measurement target: MurF (UniProt P11880)
- Sequence (whole entry): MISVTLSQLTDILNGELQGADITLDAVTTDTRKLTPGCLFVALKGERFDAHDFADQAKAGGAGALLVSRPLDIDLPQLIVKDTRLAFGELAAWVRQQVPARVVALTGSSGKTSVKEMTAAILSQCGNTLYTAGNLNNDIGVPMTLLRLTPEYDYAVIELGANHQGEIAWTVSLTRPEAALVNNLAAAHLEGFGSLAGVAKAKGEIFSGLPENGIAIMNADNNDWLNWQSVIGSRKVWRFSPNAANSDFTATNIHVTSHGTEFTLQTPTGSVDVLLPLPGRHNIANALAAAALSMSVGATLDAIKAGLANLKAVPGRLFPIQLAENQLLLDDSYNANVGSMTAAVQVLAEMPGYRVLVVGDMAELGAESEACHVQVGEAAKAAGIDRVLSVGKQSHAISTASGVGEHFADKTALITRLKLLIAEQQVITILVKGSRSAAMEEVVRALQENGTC
- experiment summary: relative enzymatic activity vs untreated control (fraction); higher = less inhibition
- assay context: 100 µM; incubation time: 2 h at 37 C
Below, each entry is listed alongside its reported relative enzymatic activity.

Please look up its relative enzymatic activity: NCCC(O)C(=O)NC1CC(N)C(OC2OC(CN)C(O)C(O)C2O)C(O)C1OC1OC(CO)C(O)C(N)C1O.O (stereo unspecified)
0.962

Could you share which relative enzymatic activity value was measured for "CN(C)[C@@H]1C(=O)[C@@H](C(N)=O)C(=O)[C@@]2(O)C(=O)[C@H]3C(=O)c4c(O)ccc(Cl)c4[C@@H](O)[C@H]3C[C@@H]12" ?
0.975

So what does the record say about relative enzymatic activity for Cc1ccc(S(=O)(=O)O)cc1.NC1CCN(c2nc3c(cc2F)c(=O)c(C(=O)O)cn3-c2ccc(F)cc2F)C1.O (stereo unspecified) ?
1.01

Quick one: relative enzymatic activity for "Cc1c(N)nc([C@H](CC(N)=O)NC[C@H](N)C(N)=O)nc1C(=O)N[C@H](C(=O)N[C@H](C)[C@@H](O)[C@H](C)C(=O)N[C@H](C(=O)NCCc1nc(-c2nc(C(=O)NCCCNCCCCN)cs2)cs1)[C@@H](C)O)[C@@H](O[C@@H]1O[C@@H](CO)[C@@H](O)[C@H](O)[C@@H]1O[C@@H]1O[C@H](CO)[C@@H](O)[C@H](OC(N)=O)[C@@H]1O)c1c[nH]cn1" ?
0.281

Query (molecule): "Cl.N=C(N)n1cccn1" ; field requested: relative enzymatic activity
0.939

Given the molecule "CN1CCN(c2c(F)cc3c(=O)c(C(=O)O)cn(CCF)c3c2F)CC1" , what is its reported relative enzymatic activity?
0.984

The reported numbers originate from the supplement of paper PMC9446081.
